Molecular target: SNAT2 (Homo sapiens)
Construct: hyperosmotically treated PC-3 cells, known to upregulate SNAT2; endogenous in cells; host or cells: PC-3 prostate cells exposed to hyperosmotic medium for 24 h
Experiment: Inhibition of SNAT2-mediated 3H-glycine uptake in hyperosmotically treated PC-3 cells
Format: cell-based
Conditions: hyperosmotically treated PC-3 cells, 5 min uptake of 11.1 nM 3H-glycine, pH 7.4; read-out: IC50
Counter-ions that a name gives are not always drawn.
Readout Label: IC50 (µM)
Unit µM implied. Number only.

Compound: N[C@@H](CO)C(=O)O
Numeric Readout: 460
//
Compound: C[N+](C)(C)CC(=O)O
Numeric Readout: 6600
//
Compound: O=C(O)[C@@H]1CCCN1
Numeric Readout: 640

Inquiry: Write down measured IC50 (SNAT2 (Homo sapiens)) for this compound. NCC(=O)O
Reply text: 520

Inquiry: Report value: IC50, system: SNAT2 (Homo sapiens), compound: C[C@H](N)C(=O)OC(C)(C)C [L-Alanine tert-butyl ester, L-alanine tert-butyl ester hydrochloride]
Reply text: 4100

Inquiry: // output IC50; input O=C(O)c1ccccn1 ; system SNAT2 (Homo sapiens)
Reply text: 5600

Inquiry: Answer briefly: IC50 recorded on SNAT2 (Homo sapiens) for O=C(O)[C@@H]1CCCCN1
Reply text: 2900

Inquiry: Answer briefly: IC50 recorded on SNAT2 (Homo sapiens) for CN(C)CC(=O)O [N,N-Dimethylglycine, N,N-dimethylglycine hydrochloride]
Reply text: 23000

Inquiry: Return reported IC50 for target or system SNAT2 (Homo sapiens), item COC(=O)[C@H](C)N [L-Alanine methyl ester, L-alanine methyl ester hydrochloride] .
Reply text: 330

----------
Biological target: SNAT2 (Homo sapiens)
Construct: hyperosmotically treated PC-3 cells, known to upregulate SNAT2; endogenous in cells; host or cells: PC-3 prostate cells exposed to hyperosmotic medium for 24 h
Assay: FLIPR membrane potential (FMP) assay in PC-3 cells
Format: cell-based
Conditions: hyperosmotically treated PC-3 cells
Readout Label: pEC50
Notebook: values listed as pEC50 are -log10 of the concentration (mol/L).

Inquiry: Please respond with reported pEC50 (system SNAT2 (Homo sapiens)) for C[C@H](N)C(=O)O .
Reply text: 3.61

----------
Target: SNAT2 (Homo sapiens)
Construct: hyperosmotically treated PC-3 cells, known to upregulate SNAT2; endogenous in cells; host or cells: PC-3 prostate cells exposed to hyperosmotic medium for 24 h
Sequence (Q96QD8 1-506): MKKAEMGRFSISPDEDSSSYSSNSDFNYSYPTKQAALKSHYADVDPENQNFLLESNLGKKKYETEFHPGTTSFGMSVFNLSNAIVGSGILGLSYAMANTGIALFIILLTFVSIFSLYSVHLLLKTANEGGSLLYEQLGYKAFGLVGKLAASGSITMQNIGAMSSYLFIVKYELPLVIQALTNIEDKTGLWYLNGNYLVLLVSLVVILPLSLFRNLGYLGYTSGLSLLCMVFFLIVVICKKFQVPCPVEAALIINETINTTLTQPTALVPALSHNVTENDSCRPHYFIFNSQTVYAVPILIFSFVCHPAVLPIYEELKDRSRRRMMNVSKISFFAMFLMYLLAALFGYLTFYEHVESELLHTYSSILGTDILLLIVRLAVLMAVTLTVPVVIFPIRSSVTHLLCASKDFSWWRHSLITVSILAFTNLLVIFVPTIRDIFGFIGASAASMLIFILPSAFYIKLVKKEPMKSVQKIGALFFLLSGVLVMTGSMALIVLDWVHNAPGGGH
Test: FLIPR membrane potential (FMP) assay in PC-3 cells
Type: cell-based
Details: 10 mM compound, hyperosmotically treated PC-3 cells
Structures can show the parent of a compound that is named as a salt.
Readout Label: AUC of fluorescence response-time curve

Sample records with AUC of fluorescence response-time curve:
Compound: N[C@@H](CO)C(=O)O [L-Serine, L-serine]
AUC of fluorescence response-time curve: 24 ± 0.9 10^5 RFU ∙ s
//
Compound: N[C@@H](CCO)C(=O)O [L-Homoserine, L-homoserine]
AUC of fluorescence response-time curve: 25.9 ± 1.4 10^5 RFU ∙ s
//
Compound: C[C@H](N)C(=O)OCc1ccccc1 [L-Alanine benzyl ester, L-alanine benzyl ester hydrochloride]
AUC of fluorescence response-time curve: -1.4 ± 3.2 10^5 RFU ∙ s

Inquiry: Provide one value: measured AUC of fluorescence response-time curve of O=C(O)[C@@H]1CCCCN1 [L-Pipecolinic acid, L-pipecolinic acid]
Reply text: 18.1 ± 0.2 10^5 RFU ∙ s

Inquiry: Let me know recorded AUC of fluorescence response-time curve for CCOC(=O)[C@H](C)N [L-Alanine ethyl ester, L-alanine ethyl ester hydrochloride] , thanks.
Reply text: 21.1 ± 0.6 10^5 RFU ∙ s

Inquiry: Look up and report measured AUC of fluorescence response-time curve for this entry: C[C@H](N)C(=O)O [L-Alanine, L-alanine]
Reply text: 22.1 ± 0.9 10^5 RFU ∙ s

Inquiry: Tell me measured AUC of fluorescence response-time curve for CCCC[C@H](N)C(=O)O [L-Norleucine, L-norleucine] please.
Reply text: 24.4 ± 1.3 10^5 RFU ∙ s

Inquiry: Note down AUC of fluorescence response-time curve recorded for COC(=O)[C@H](C)N [L-Alanine methyl ester, L-alanine methyl ester hydrochloride]
Reply text: 23.5 ± 0.8 10^5 RFU ∙ s
